molecular target: human DR5 (human); assay: SPR (BIAcore X100), human DR5 on CM5 chip, IgG injected, 1:1 Langmuir model
As shown below, each of these binders has a reported Kd value.

Sample records with Kd:
1. DA13 (antibody, V domains shown) VH: EVQLVESGGGLVQPGGSLRLSCAASGFTFSSFNMLWVRQAPGKGLEWVAGIGKSDRYTGYGSAVKGRFTISRDTSKNTAYLQMNSLRAEDTAVYYCSRDAGSGCGSGGWTGACIDTWGQGTLVTVSS VL: DIQMTQSPSSLSASVGDRVTITCSGGDSYAGSYYYGWYQQKPGKAPKTLIYNNNNRPSGVPSRFSGSRSGTDFTLTISSLQPEDFATYYCGSRDSAGMGAFGQGTKVEIK | 11.2 pM
2. DA18 (antibody, V domains shown) VH: EVQLVESGGGLVQPGGSLRLSCAASGFTFSSFNMLWVRQAPGKGLEWVAGIGKSDRYTGYGSAVKGRFTISRDDSKSTVYLQMNSLRAEDTAVYYCVRDAGSGCGSGGWTGACIDTWGQGTLVTVSS VL: DIQMTQSPSSLSASVGDRVTITCSGGDSYAGSYYYGWYQQKPGKAPKTLIYNNNNRPSGVPSRFSGSRSGTDFTLTISSLQPEDFATYYCGSRDSDGGGRFGQGTKVEIK | 27.7 pM
3. DA10 (antibody, V domains shown) VH: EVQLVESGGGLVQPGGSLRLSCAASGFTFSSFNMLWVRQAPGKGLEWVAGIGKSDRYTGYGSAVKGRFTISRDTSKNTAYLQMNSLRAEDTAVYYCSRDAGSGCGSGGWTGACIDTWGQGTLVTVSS VL: DIQMTQSPSSLSASVGDRVTITCSGGDSYAGSYYYGWYQQKPGKAPKTLIYNNNNRPSGVPSRFSGSRSGTDFTLTISSLQPEDFATYYCGSRDSSYVGIFGQGTKVEIK | 7 pM
4. DA26 (antibody, V domains shown) VH: AVTLDESGGGLQTPGGGLSLVCKGSGFTFSSFNMLWVRQAPGKGLEWVAGIGKSDRYTGYGSAVKGRATISRDDGQSTVYLQMNSLRAEDTGTYYCVKDAGSGCGSGGWTGACIDTWGHGTEVIVSS VL: LTQPSSVSANLGGTVEITCSGGDSYAGSYYYGWYQQKAPGSAPVTVIYNNNNRPSNIPSRFSGSTSGSTATLTITGVQAEDEATYYCGSRDSSYVGIFGAGTTLTVL | 1.01 pM

--- query ---
[ask] # query: Kd of entry DA2 (antibody, V domains shown) VH: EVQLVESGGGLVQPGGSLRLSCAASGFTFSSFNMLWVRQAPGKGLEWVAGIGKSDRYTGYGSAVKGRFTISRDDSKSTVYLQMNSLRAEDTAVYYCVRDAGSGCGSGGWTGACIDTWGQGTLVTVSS VL: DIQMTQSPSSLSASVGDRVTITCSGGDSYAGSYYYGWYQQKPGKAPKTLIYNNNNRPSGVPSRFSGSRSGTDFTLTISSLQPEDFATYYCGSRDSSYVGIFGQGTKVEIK
[reply] < 5.3 pM
